Cited source: ChEMBL document CHEMBL1122068

# TARGET_ENTITY: Thymidine kinase, cytosolic (Rattus norvegicus)
# ASSAY_DETAILS: Competitive inhibition against rat cytoplasmic thymidine kinase
# Parameters: concentration or dose not given beside the values
# MEASUREMENT_CONDITIONS: concentration not given here
MEASURED_PROPERTY: inhibition (%)

>  <COMPOUND>
Cn1c(=O)ccn([C@H]2C[C@H](O)[C@@H](CO)O2)c1=O

>  <OBSERVED>
62

$$$$
>  <COMPOUND>
CC1CN([C@H]2C[C@H](O)[C@@H](CO)O2)C(=O)NC1=O (stereo not given in full)

>  <OBSERVED>
53

$$$$
>  <COMPOUND>
CCC(=O)O[C@H]1C[C@H](n2ccc(N)nc2=O)O[C@@H]1CO

>  <OBSERVED>
8

$$$$
>  <COMPOUND>
CO[C@H]1C[C@H](n2ccc(N)nc2=O)O[C@@H]1CO

>  <OBSERVED>
3

$$$$
>  <COMPOUND>
CC[S+]([O-])CC1OC(n2cc(C)c(=O)[nH]c2=O)CC1O (stereo not given)

>  <OBSERVED>
4

$$$$

====

Readings of Differential affinity for the listed compounds
# Organism: Rattus norvegicus
# ASSAY_DETAILS: Differential affinity is the ratio between M-TK and C-TK

>  <COMPOUND>
Cc1cn([C@H]2C[C@H](O)[C@@H](CN)O2)c(=O)[nH]c1=O

>  <COMPARATIVE_SIGN>
=

>  <Differential affinity>
0.0025

$$$$
>  <COMPOUND>
Nc1cn([C@H]2C[C@H](O)[C@@H](CO)O2)c(=O)[nH]c1=O

>  <COMPARATIVE_SIGN>
=

>  <Differential affinity>
26

$$$$
>  <COMPOUND>
CC(=O)NC1CC(n2cc(C)c(=O)[nH]c2=O)OC1CO (stereo not drawn)

>  <COMPARATIVE_SIGN>
<

>  <Differential affinity>
4.8

$$$$
>  <COMPOUND>
CCO[C@H]1C[C@H](n2cc(C)c(=O)[nH]c2=O)O[C@@H]1CO

>  <COMPARATIVE_SIGN>
=

>  <Differential affinity>
3.2

$$$$
>  <COMPOUND>
Cc1cn([C@H]2C[C@H](O)[C@@H](CO)O2)c(=O)nc1N

>  <COMPARATIVE_SIGN>
=

>  <Differential affinity>
7.9

$$$$
>  <COMPOUND>
CSc1cn([C@H]2C[C@H](O)[C@@H](CO)O2)c(=O)[nH]c1=O

>  <COMPARATIVE_SIGN>
=

>  <Differential affinity>
1

$$$$
>  <COMPOUND>
Cc1cn([C@H]2C[C@H](O)[C@@H](CO)O2)c(=O)n(Cc2ccccc2)c1=O

>  <COMPARATIVE_SIGN>
=

>  <Differential affinity>
0.04

$$$$
>  <COMPOUND>
CCCCCn1c(=O)c(C)cn([C@H]2C[C@H](O)[C@@H](CO)O2)c1=O

>  <COMPARATIVE_SIGN>
=

>  <Differential affinity>
0.17

$$$$

====

# TARGET_ENTITY: Thymidine kinase, cytosolic (Rattus norvegicus)
# ASSAY_DETAILS: Affinity towards cytoplasmic Thymidine kinase relative ot TdR.
Values of Relative affinity strictly less than 0.03 map to yes, and values of at least 0.03 map to no.

>  <COMPOUND>
CCSC1CC(n2cc(C)c(=O)[nH]c2=O)OC1CO (stereo not given)

>  <CLASS>
no

$$$$
>  <COMPOUND>
Cc1cn([C@H]2C[C@H](N)[C@@H](CO)O2)c(=O)[nH]c1=O

>  <CLASS>
yes

$$$$
>  <COMPOUND>
CCNCC1OC(n2cc(C)c(=O)[nH]c2=O)CC1O (stereo not given)

>  <CLASS>
no

$$$$
>  <COMPOUND>
CCOC1N([C@H]2C[C@H](O)[C@@H](CO)O2)C(=O)NC(=O)C1(C)Br (stereo in doubt; 4b)

>  <CLASS>
no

$$$$
>  <COMPOUND>
Cc1cn([C@H]2C[C@H](O)[C@@H](CN)O2)c(=O)[nH]c1=O

>  <CLASS>
no

$$$$
>  <COMPOUND>
Cc1cn([C@H]2C[C@H](O)[C@@H](CO)O2)c(=O)n(Cc2ccccc2)c1=O

>  <CLASS>
no

$$$$
>  <COMPOUND>
CSc1cn([C@H]2C[C@H](O)[C@@H](CO)O2)c(=O)[nH]c1=O

>  <CLASS>
no

$$$$
>  <COMPOUND>
Nc1cn([C@H]2C[C@H](O)[C@@H](CO)O2)c(=O)[nH]c1=O

>  <CLASS>
yes

$$$$
>  <COMPOUND>
Cc1cn([C@H]2CC[C@@H](CO)O2)c(=O)[nH]c1=O

>  <CLASS>
yes

$$$$
>  <COMPOUND>
CCCCCCNCC1OC(n2cc(C)c(=O)[nH]c2=O)CC1O (stereo not given)

>  <CLASS>
no

$$$$
>  <COMPOUND>
Cc1cn(C2CC(O)C(CSCCO)O2)c(=O)[nH]c1=O (stereo not given)

>  <CLASS>
yes

$$$$
>  <COMPOUND>
CCCCCn1c(=O)c(C)cn([C@H]2C[C@H](O)[C@@H](CO)O2)c1=O

>  <CLASS>
no

$$$$
>  <COMPOUND>
Cc1cn([C@H]2C[C@H](OCc3ccccc3)[C@@H](CO)O2)c(=O)[nH]c1=O

>  <CLASS>
no

$$$$
>  <COMPOUND>
Cc1cn([C@H]2C[C@H](O)[C@@H](CO)O2)c(=O)nc1N

>  <CLASS>
yes

$$$$
>  <COMPOUND>
CCOC1N([C@H]2C[C@H](O)[C@@H](CO)O2)C(=O)NC(=O)C1(C)Br (stereo in doubt; 4c)

>  <CLASS>
no

$$$$

====

# TARGET_ENTITY: Thymidine kinase 2 (Rattus norvegicus) (UniProt D3ZGQ2)
# Sequence (whole entry): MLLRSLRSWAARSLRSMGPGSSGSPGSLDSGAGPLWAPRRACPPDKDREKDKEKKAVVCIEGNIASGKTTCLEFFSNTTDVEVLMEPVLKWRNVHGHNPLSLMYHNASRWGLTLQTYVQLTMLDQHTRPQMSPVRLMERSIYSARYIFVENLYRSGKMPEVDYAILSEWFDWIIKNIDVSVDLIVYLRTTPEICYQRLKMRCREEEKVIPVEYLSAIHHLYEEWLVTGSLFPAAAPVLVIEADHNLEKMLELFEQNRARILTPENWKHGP
# ASSAY_DETAILS: Ability to inhibit rat mitochondrial thymidine kinase
# Design: concentration or dose not given beside the values
# MEASUREMENT_CONDITIONS: concentration not given here
inhibition below 20% gives F; inhibition at or above it gives T.

>  <MOLECULE>
Cc1cn(C2CC(O)C(CSCCC(=O)O)O2)c(=O)[nH]c1=O (centres undefined)

>  <CLASS>
T

$$$$
>  <MOLECULE>
CC(=O)NCC1OC(n2cc(C)c(=O)[nH]c2=O)CC1O (centres undefined)

>  <CLASS>
F

$$$$
>  <MOLECULE>
CCSCC1OC(n2cc(C)c(=O)[nH]c2=O)CC1O (centres undefined)

>  <CLASS>
T

$$$$
>  <MOLECULE>
CO[C@H]1C[C@H](n2ccc(N)nc2=O)O[C@@H]1CO

>  <CLASS>
T

$$$$
>  <MOLECULE>
CCC(=O)O[C@H]1C[C@H](n2ccc(N)nc2=O)O[C@@H]1CO

>  <CLASS>
F

$$$$
>  <MOLECULE>
Nc1ccn([C@@H]2O[C@H](CO)[C@@H](O)[C@H]2O)c(=O)n1

>  <CLASS>
F

$$$$
>  <MOLECULE>
Cc1cn(C2CC(O)C(CSCCCC(=O)O)O2)c(=O)[nH]c1=O (centres undefined)

>  <CLASS>
T

$$$$
>  <MOLECULE>
Cc1cn([C@H]2C[C@H](O)[C@@H](CO)O2)c(=O)n(Cc2ccccc2)c1=O

>  <CLASS>
F

$$$$
>  <MOLECULE>
O=c1ccn([C@H]2C[C@H](O)[C@@H](CO)O2)c(=O)[nH]1

>  <CLASS>
T

$$$$
>  <MOLECULE>
O=c1ccn([C@@H]2O[C@H](CO)[C@@H](O)[C@H]2O)c(=O)[nH]1

>  <CLASS>
F

$$$$
>  <MOLECULE>
CCNc1ccn([C@H]2C[C@H](O)[C@@H](CO)O2)c(=O)n1

>  <CLASS>
F

$$$$
>  <MOLECULE>
CC(=O)Nc1cn([C@H]2C[C@H](O)[C@@H](CO)O2)c(=O)[nH]c1=O

>  <CLASS>
F

$$$$
>  <MOLECULE>
CC[S+]([O-])CC1OC(n2cc(C)c(=O)[nH]c2=O)CC1O (centres undefined)

>  <CLASS>
F

$$$$
>  <MOLECULE>
CCCCNCC1OC(n2cc(C)c(=O)[nH]c2=O)CC1O (centres undefined)

>  <CLASS>
T

$$$$
>  <MOLECULE>
Cc1cn(C2CC(O)C(CSCCO)O2)c(=O)[nH]c1=O (centres undefined)

>  <CLASS>
T

$$$$
>  <MOLECULE>
NCc1cn([C@H]2C[C@H](O)[C@@H](CO)O2)c(=O)[nH]c1=O

>  <CLASS>
F

$$$$
>  <MOLECULE>
Cn1c(=O)ccn([C@H]2C[C@H](O)[C@@H](CO)O2)c1=O

>  <CLASS>
F

$$$$
>  <MOLECULE>
Nc1ccn([C@H]2C[C@H](O)[C@@H](CO)O2)c(=O)n1

>  <CLASS>
T

$$$$
>  <MOLECULE>
CC1CN([C@H]2C[C@H](O)[C@@H](CO)O2)C(=O)NC1=O (some centres undefined)

>  <CLASS>
T

$$$$
